tested on: HepG2; assay: Cytotoxicity against human HepG2 cells assessed as cell viability after 24 hrs by crystal violet staining assay; type: functional, cell-based; settings: HepG2, 24 h
reported.endpoint: log10 IC50 (log10 of the value in µM)
On a log10 scale: recorded IC50, unit µM.

Before answering, review these 3 worked examples.
| test.smiles | log10 IC50 |
| --- | --- |
| Cc1[nH]c(C(=O)N/N=C2\C(=O)Nc3ccc([N+](=O)[O-])cc32)c(C)c1C(=O)N/N=C1\C(=O)Nc2ccc([N+](=O)[O-])cc21 | 1.94 |
| Cc1[nH]c(C(=O)N/N=C2\C(=O)Nc3ccccc32)c(C)c1C(=O)N/N=C1\C(=O)Nc2ccccc21 | 1.48 |
| COc1cccc2c1C(=O)c1c(O)c3c(c(O)c1C2=O)C[C@@](O)(C(=O)CO)C[C@@H]3O[C@H]1C[C@H](N)[C@H](O)[C@H](C)O1 | 0.55 |

Reported log10 IC50 for HepG2, given `Cc1[nH]c(C(=O)N/N=C2\C(=O)Nc3ccc(Br)cc32)c(C)c1C(=O)N/N=C1\C(=O)Nc2ccc(Br)cc21` ?
1.51

Param readout = log10 IC50; param system = HepG2; param query = `O=C1Nc2ccc(F)cc2/C1=N/NC(=O)c1cncc(C(=O)N/N=C2\C(=O)Nc3ccc(F)cc32)c1` ; response: value
1.88

I'm curious: which log10 IC50 was measured for `O=C1Nc2ccccc2/C1=N/NC(=O)c1cncc(C(=O)N/N=C2\C(=O)Nc3ccccc32)c1` tested on HepG2?
1.86

I'm curious: which log10 IC50 was measured for `O=C(N/N=C1\C(=O)Nc2ccc([N+](=O)[O-])cc21)C(=O)N/N=C1\C(=O)Nc2ccc([N+](=O)[O-])cc21` tested on HepG2?
1.41

Kindly state the measured log10 IC50 obtained for `Cc1ccc2c(c1)/C(=N/NC(=O)c1c(C)c(C(=O)N/N=C3\C(=O)Nc4ccc(C)cc43)n(C)c1C)C(=O)N2` with HepG2.
1.34

API: value(readout= log10 IC50, system= HepG2, query= `COc1ccc2c(c1)/C(=N/NC(=O)c1c(C)c(C(=O)N/N=C3\C(=O)Nc4ccc(OC)cc43)n(C)c1C)C(=O)N2` )
0.84

Form field - read-out: log10 IC50; system: HepG2; submitted item: `COc1ccc2c(c1)/C(=N/NC(=O)c1cncc(C(=O)N/N=C3\C(=O)Nc4ccc(OC)cc43)c1)C(=O)N2`
1.56

Can you look up log10 IC50 on HepG2 for `O=C1Nc2ccc(Br)cc2/C1=N/NC(=O)c1cncc(C(=O)N/N=C2\C(=O)Nc3ccc(Br)cc32)c1` ?
1.48

# get_value(readout= log10 IC50, system= HepG2) for `COc1ccc2c(c1)/C(=N/NC(=O)c1[nH]c(C)c(C(=O)N/N=C3\C(=O)Nc4ccc(OC)cc43)c1C)C(=O)N2`
1.92

Given the entry `O=C1Nc2ccc([N+](=O)[O-])cc2/C1=N/NC(=O)c1cncc(C(=O)N/N=C2\C(=O)Nc3ccc([N+](=O)[O-])cc32)c1` , what log10 IC50 was observed with HepG2?
1.88
